- protocol.summary: in vivo
- test.conditions: female, Wistar, rat, ip, 8 mg/kg, t1/2 in cervical SC
readout.kind: half-life (h)
Express it in h; write the number only.

## Input Fill in reported half-life for this entry: CC(OC(=O)CCCC[C@]1(C)CCSS1)OC(=O)Nc1nc2ccc(OC(F)(F)F)cc2s1 (stereo partly shown) [Formula II (2-1)]
## Output 13.2

====

- protocol.summary: in vivo
- test.conditions: female, Wistar, rat, ip, 8 mg/kg, t1/2 in brain
readout.kind: half-life (h)
Express it in h; write the number only.

## Input Fill in reported half-life for this entry: CC(OC(=O)CCCC[C@]1(C)CCSS1)OC(=O)Nc1nc2ccc(OC(F)(F)F)cc2s1 (stereo partly shown)
## Output 13.2
